The values you see were collected from paper PMC7028757.

Tested on: Oxytricha Nova G-quadruplex d(GGGGTTTTGGGG) (DNA, G4) GGGGTTTTGGGG
assayName: FID
particulars: 100 mM NaCl; 10 mM sodium cacodylate, 0.5 mM EDTA, pH 7.0, 20°C; thiazole orange 0.50 μM displaced
valueType: DC50 (µM)
Hi! Could you send only the number? It should be in µM, unit omitted.

query: Data request, read-out DC50, for `NC[C@@H]1O[C@H](O[C@H]2[C@@H](O)[C@H](O[C@@H]3[C@@H](O)[C@H](N)C[C@H](N)[C@H]3O[C@H]3O[C@H](CN)[C@@H](O)[C@H](O)[C@H]3N)O[C@@H]2CO)[C@H](N)[C@@H](O)[C@@H]1O`
result: 76.02

query: Data request, read-out DC50, for `NC[C@@H]1O[C@H](O[C@H]2[C@@H](O)[C@H](O[C@@H]3[C@@H](O)[C@H](N)C[C@H](N)[C@H]3O[C@H]3O[C@H](CN)[C@@H](O)[C@H](O)[C@H]3N)O[C@@H]2CSCCNC(=O)CCCc2ccc3ccc4cccc5ccc2c3c45)[C@H](N)[C@@H](O)[C@@H]1O`
result: 4.73

query: Data request, read-out DC50, for `NC[C@@H]1O[C@H](O[C@H]2[C@@H](O)[C@H](O[C@@H]3[C@@H](O)[C@H](N)C[C@H](N)[C@H]3O[C@H]3O[C@H](CN)[C@@H](O)[C@H](O)[C@H]3N)O[C@@H]2CSCCNC(=O)NCCCNC(=O)c2ccc3c(c2)C(=O)c2ccccc2C3=O)[C@H](N)[C@@H](O)[C@@H]1O`
result: 0.30

query: Data request, read-out DC50, for `CN(C)CCN1C(=O)c2ccc3c4c(ccc(c24)C1=O)C(=O)N(CCCNC(=O)NCCSC[C@H]1O[C@@H](O[C@@H]2[C@@H](O)[C@H](N)C[C@H](N)[C@H]2O[C@H]2O[C@H](CN)[C@@H](O)[C@H](O)[C@H]2N)[C@H](O)[C@@H]1O[C@H]1O[C@@H](CN)[C@@H](O)[C@H](O)[C@H]1N)C3=O`
result: 7.89

###

System: d(AGGGGTTTTCCCCT) hairpin duplex (DNA, hairpin) AGGGGTTTTCCCCT
assayName: FID
particulars: 100 mM NaCl; 10 mM sodium cacodylate, 0.5 mM EDTA, pH 7.0, 20°C; thiazole orange 0.50 μM displaced
Kindly state DC50 for each of the entries shown.
Hi! Could you send only the number? It should be in nM, unit omitted.

query: Data request, read-out DC50, for `CN(C)CCN1C(=O)c2ccc3c4c(ccc(c24)C1=O)C(=O)N(CCCNC(=O)NCCSC[C@H]1O[C@@H](O[C@@H]2[C@@H](O)[C@H](N)C[C@H](N)[C@H]2O[C@H]2O[C@H](CN)[C@@H](O)[C@H](O)[C@H]2N)[C@H](O)[C@@H]1O[C@H]1O[C@@H](CN)[C@@H](O)[C@H](O)[C@H]1N)C3=O`
result: 830

query: Data request, read-out DC50, for `NC[C@@H]1O[C@H](O[C@H]2[C@@H](O)[C@H](O[C@@H]3[C@@H](O)[C@H](N)C[C@H](N)[C@H]3O[C@H]3O[C@H](CN)[C@@H](O)[C@H](O)[C@H]3N)O[C@@H]2CO)[C@H](N)[C@@H](O)[C@@H]1O`
result: 53440

query: Data request, read-out DC50, for `NC[C@@H]1O[C@H](O[C@H]2[C@@H](O)[C@H](O[C@@H]3[C@@H](O)[C@H](N)C[C@H](N)[C@H]3O[C@H]3O[C@H](CN)[C@@H](O)[C@H](O)[C@H]3N)O[C@@H]2CSCCNC(=O)NCCCNC(=O)c2ccc3c(c2)C(=O)c2ccccc2C3=O)[C@H](N)[C@@H](O)[C@@H]1O`
result: 750

query: Data request, read-out DC50, for `NC[C@@H]1O[C@H](O[C@H]2[C@@H](O)[C@H](O[C@@H]3[C@@H](O)[C@H](N)C[C@H](N)[C@H]3O[C@H]3O[C@H](CN)[C@@H](O)[C@H](O)[C@H]3N)O[C@@H]2CSCCNC(=O)CCCc2ccc3ccc4cccc5ccc2c3c45)[C@H](N)[C@@H](O)[C@@H]1O`
result: 2610

###

Tested on: Oxytricha Nova G-quadruplex d(GGGGTTTTGGGG) (DNA, G4) GGGGTTTTGGGG
assayName: UV melting, 260 nm
particulars: 100 mM NaCl; 10 mM sodium cacodylate, 0.5 mM EDTA, pH 7.0; 5 μM quadruplex, ligand 1:1
valueType: ΔTm (°C)
Hi! Could you send only the number? It should be in °C, unit omitted.

query: Data request, read-out ΔTm, for `NC[C@@H]1O[C@H](O[C@H]2[C@@H](O)[C@H](O[C@@H]3[C@@H](O)[C@H](N)C[C@H](N)[C@H]3O[C@H]3O[C@H](CN)[C@@H](O)[C@H](O)[C@H]3N)O[C@@H]2CSCCNC(=O)NCCCNC(=O)c2ccc3c(c2)C(=O)c2ccccc2C3=O)[C@H](N)[C@@H](O)[C@@H]1O`
result: 0.5

query: Data request, read-out ΔTm, for `CN(C)CCN1C(=O)c2ccc3c4c(ccc(c24)C1=O)C(=O)N(CCCNC(=O)NCCSC[C@H]1O[C@@H](O[C@@H]2[C@@H](O)[C@H](N)C[C@H](N)[C@H]2O[C@H]2O[C@H](CN)[C@@H](O)[C@H](O)[C@H]2N)[C@H](O)[C@@H]1O[C@H]1O[C@@H](CN)[C@@H](O)[C@H](O)[C@H]1N)C3=O`
result: 0.6

query: Data request, read-out ΔTm, for `NC[C@@H]1O[C@H](O[C@H]2[C@@H](O)[C@H](O[C@@H]3[C@@H](O)[C@H](N)C[C@H](N)[C@H]3O[C@H]3O[C@H](CN)[C@@H](O)[C@H](O)[C@H]3N)O[C@@H]2CSCCNC(=O)CCCc2ccc3ccc4cccc5ccc2c3c45)[C@H](N)[C@@H](O)[C@@H]1O`
result: 1.9

query: Data request, read-out ΔTm, for `NC[C@@H]1O[C@H](O[C@H]2[C@@H](O)[C@H](O[C@@H]3[C@@H](O)[C@H](N)C[C@H](N)[C@H]3O[C@H]3O[C@H](CN)[C@@H](O)[C@H](O)[C@H]3N)O[C@@H]2CO)[C@H](N)[C@@H](O)[C@@H]1O`
result: 0.0
